Entries annotated with measured inhibition
# tested_system: Sentrin-specific protease 6 (Homo sapiens)
# protocol: SENP6 protease inhibitors, primary screen, biochemical, luminescence, uHTS (AID 2599);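 further: plate controls were DMSO wells with enzyme for no effect and DMSO wells lacking enzyme for full effect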
# conditions: Recombinant SENP6 catalytic domain, aminoluciferin luminescence; at 10 µM; active compounds read high
About 5,800 (1.8%) of roughly 330,000 compounds were called active. The full list was thinned out, with actives kept by preference.
experimental_readout: inhibition (%)

> print(dat)
                                    molecule                             tested.system  recorded.measurement
 1                  Oc1ccc(N=Nc2nccs2)c(O)c1  Sentrin-specific protease 6 (Homo sapiens)                  87.3
 2  CCCCCC(O)(CCN1CCCCC1)c1ccccc1 (stereo unspecified)  Sentrin-specific protease 6 (Homo sapiens)                  5.63
 3        Cc1ccccc1C(=O)Nc1ccc(N2CCCCCC2)cc1  Sentrin-specific protease 6 (Homo sapiens)                  72.7
 4   O=[N+]([O-])c1ccc2nc(-c3ccccn3)[nH]c2c1  Sentrin-specific protease 6 (Homo sapiens)                  55.5
 5              CCN1CCN(C(=O)/C=C\C(=O)O)CC1  Sentrin-specific protease 6 (Homo sapiens)                 -13.9
 6  COC(=O)c1cccc(C(=O)N2CCC(CCC(=O)NCc3ccc(F)cc3)CC2)c1  Sentrin-specific protease 6 (Homo sapiens)                  2.77
 7  O=C(NCc1ccco1)C(c1ccncc1)N(C(=O)Cn1nnc2ccccc21)c1ccccc1 (stereo unspecified)  Sentrin-specific protease 6 (Homo sapiens)                 -7.82
 8  C=CCNC(=S)N1CCN(CCN=Cc2c(C)[nH]n(-c3ccc([N+](=O)[O-])cc3)c2=O)CC1  Sentrin-specific protease 6 (Homo sapiens)                  1.69
 9  O=C(NC1CC1)C1CCCN(C(=O)NC2CCCCC2)C1 (stereo unspecified)  Sentrin-specific protease 6 (Homo sapiens)                 -5.19
10  O=[N+]([O-])c1ccc2c(c1)Nc1nc3ccccc3nc1N2  Sentrin-specific protease 6 (Homo sapiens)                   -19
11              CSc1cccc(NC(=O)CSc2ccccc2)c1  Sentrin-specific protease 6 (Homo sapiens)                   -11
12  CNC(C)C#Cc1ccc2sc3cc(OC)c(OC)cc3c(=O)c2c1 (stereo unspecified)  Sentrin-specific protease 6 (Homo sapiens)                  78.2
13  O=C(Cc1ccc(F)cc1)N1CCN=C1SCc1cccc([N+](=O)[O-])c1  Sentrin-specific protease 6 (Homo sapiens)                  4.91
14                 Cc1nnc2n1N=C(c1ccccc1)CS2  Sentrin-specific protease 6 (Homo sapiens)                 0.225
15  O=C(Nc1ccc(N2CCOCC2)cc1)c1cccc(S(=O)(=O)N2CCOCC2)c1  Sentrin-specific protease 6 (Homo sapiens)                -0.135
16           CCOc1ccc(C(=O)Nc2cccc(SC)c2)cc1  Sentrin-specific protease 6 (Homo sapiens)                  91.4
17  COc1ccc(C2CC(c3cccs3)=NN2c2ccccc2)cc1 (stereo unspecified)  Sentrin-specific protease 6 (Homo sapiens)                 -18.7
18  O=c1c2cc(-c3ccccc3)sc2nc2n1N=C(c1cccs1)CS2  Sentrin-specific protease 6 (Homo sapiens)                  73.2
19  COc1cccc(-c2ccc3c(c2)S(=O)(=O)c2cccc(C(=O)O)c2C3=O)c1OC  Sentrin-specific protease 6 (Homo sapiens)                 -1.89
20  O=C(O)c1ccc2c3c(cccc13)C(=O)N(OS(=O)(=O)c1ccccc1)C2=O  Sentrin-specific protease 6 (Homo sapiens)                  60.3
21  COc1c(C=O)c(CCN(C)C(=O)c2ccc(F)cc2)cc2c1OCO2  Sentrin-specific protease 6 (Homo sapiens)                 -13.8
22          O=C(N/N=C/c1ccsc1)c1cc(O)cc(O)c1  Sentrin-specific protease 6 (Homo sapiens)                  3.66
23    COc1ccc(NC(=O)c2cn(-c3ccccc3)nc2SC)cc1  Sentrin-specific protease 6 (Homo sapiens)                 0.083
24  Cc1ccccc1C(OCCN(C)C)C1CCCCC1 (stereo unspecified)  Sentrin-specific protease 6 (Homo sapiens)                 -10.8
25  O=[N+]([O-])c1ccc(N/N=C2/CCCCC2c2ccccn2)c([N+](=O)[O-])c1 (stereo unspecified)  Sentrin-specific protease 6 (Homo sapiens)                 -14.2
26  COc1ccccc1-n1nnnc1S(=O)(=O)Cc1ccc(Cl)cc1  Sentrin-specific protease 6 (Homo sapiens)                 -13.9
27          O=Cc1ccc(Oc2cccc(C(F)(F)F)c2)nc1  Sentrin-specific protease 6 (Homo sapiens)                  7.02
28  CCOc1ccc(C(=O)Nc2cccc(-c3ccc4nncn4n3)c2)cc1  Sentrin-specific protease 6 (Homo sapiens)                   5.7
29  Cc1ccc(-n2[nH]c(C)c(/C=N/NC(=O)c3cccc([N+](=O)[O-])c3)c2=O)cc1C  Sentrin-specific protease 6 (Homo sapiens)                  27.4
30            O=[N+]([O-])c1cccc(C2=NCCS2)c1  Sentrin-specific protease 6 (Homo sapiens)                 -2.08
31            C=CCOc1ccc(Cl)cc1CNCCCN1CCOCC1  Sentrin-specific protease 6 (Homo sapiens)                  7.54
32  COc1ccc(S(=O)(=O)N2CCOCC2)cc1NC(=O)Cc1c(F)cccc1Cl  Sentrin-specific protease 6 (Homo sapiens)                  2.93
33  Cn1nnnc1SCC(=O)Nc1cccc(S(=O)(=O)N2CCCCC2)c1  Sentrin-specific protease 6 (Homo sapiens)                 -12.9
34      O=C(NC1CCCCC1)c1ccc(-c2ccc(Cl)cc2)o1  Sentrin-specific protease 6 (Homo sapiens)                 -2.51
35  CC(Sc1nnc(COc2ccccc2)n1-c1ccccc1)C(=O)O (stereo unspecified)  Sentrin-specific protease 6 (Homo sapiens)                 -16.5
36  Oc1c(Br)cc(/C=N/NC(=S)NCC2CCCO2)cc1Br (stereo unspecified)  Sentrin-specific protease 6 (Homo sapiens)                 -26.9
37         COc1ccc(/C=N/n2c(C)cc(C)cc2=O)cc1  Sentrin-specific protease 6 (Homo sapiens)                 -12.1
38  Cc1ccccc1C(=O)N1CCN(c2ccc(NC(=O)c3cccs3)cc2)CC1  Sentrin-specific protease 6 (Homo sapiens)                 -5.79
39  Cc1[nH]n(-c2ccc([N+](=O)[O-])cc2)c(=O)c1C=NCCN1CCN(C(=O)c2ccccc2F)CC1  Sentrin-specific protease 6 (Homo sapiens)                    87
40  O=C(C1=C[C@H](c2coc3ccccc3c2=O)C[C@H](OCc2ccc(CO)cc2)O1)N1CCN(Cc2ccccc2)CC1  Sentrin-specific protease 6 (Homo sapiens)                 -13.7
41  CN(C)C(=O)c1ccc(NC(=O)COC(=O)c2cc3c(s2)CCCCC3)cc1  Sentrin-specific protease 6 (Homo sapiens)                 -9.42
42   Cc1nn(CC(=O)Nc2ccc(F)cc2)c(=O)c2ccccc12  Sentrin-specific protease 6 (Homo sapiens)                 -16.4
43  Cc1ccc(-n2nc3ccc(NC(=O)/C=C/c4ccco4)cc3n2)cc1C  Sentrin-specific protease 6 (Homo sapiens)                  10.8
44       N=c1c2c3c(sc2ncn1CCCN1CCOCC1)CCCCC3  Sentrin-specific protease 6 (Homo sapiens)                  3.22
45          O=C(Nc1ccc(F)cc1)c1cc2c(s1)CCCC2  Sentrin-specific protease 6 (Homo sapiens)                    89
46  CC1=NN(C(N)=S)C(=O)C1N=Nc1cc(Cl)ccc1Cl (stereo unspecified)  Sentrin-specific protease 6 (Homo sapiens)                  67.7

---

# tested_system: Sentrin-specific protease 6 (Homo sapiens) (UniProt Q9GZR1)
# Sequence (Q9GZR1 628-1112 limits assumed): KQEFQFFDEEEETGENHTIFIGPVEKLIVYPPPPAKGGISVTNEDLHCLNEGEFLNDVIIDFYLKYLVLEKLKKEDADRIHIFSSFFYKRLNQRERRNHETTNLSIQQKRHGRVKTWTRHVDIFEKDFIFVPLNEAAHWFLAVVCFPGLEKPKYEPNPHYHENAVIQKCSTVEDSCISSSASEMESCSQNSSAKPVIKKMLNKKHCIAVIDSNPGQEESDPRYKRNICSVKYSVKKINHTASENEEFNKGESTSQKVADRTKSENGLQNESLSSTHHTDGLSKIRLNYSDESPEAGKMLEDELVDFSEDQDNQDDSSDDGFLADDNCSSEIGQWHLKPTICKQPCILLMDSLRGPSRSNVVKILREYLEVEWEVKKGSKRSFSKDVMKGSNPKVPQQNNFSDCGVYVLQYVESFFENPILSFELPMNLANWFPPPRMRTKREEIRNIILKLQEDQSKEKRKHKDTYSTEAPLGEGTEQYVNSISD
# protocol: SENP6 protease inhibitors, primary screen, biochemical, luminescence, uHTS (AID 2599);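 further: plate controls were DMSO wells with enzyme for no effect and DMSO wells lacking enzyme for full effect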
# conditions: Recombinant SENP6 catalytic domain, aminoluciferin luminescence; at 10 µM; active compounds read high
In all, about 330,000 compounds went through this assay and about 5,800 (1.8%) were called active. The entries come from a sample that favours actives as a whole.
Reported inhibition is given for each of the following compounds.
experimental_readout: inhibition (%)

> print(dat)
                        structure.as.smiles  experimental.readout  recorded.measurement
1        COc1ccccc1NC(=O)c1cc(Cl)nc2ccccc12            inhibition                 -4.88
2  COc1cccc(NC(=O)Cn2cnc3sc(C)c(S(=O)(=O)N4CCN(C)CC4)c3c2=O)c1            inhibition                  10.7
3  O=C(O)c1cc(Cl)c(Cl)cc1C(=O)Nc1cccc2ncccc12            inhibition                    57
4  O=C(COc1ccc([N+](=O)[O-])cc1Cl)Nc1ccc2[nH]c(=O)[nH]c2c1            inhibition                  -8.3
5  CCN(c1ccccc1)S(=O)(=O)c1cccc(C(=O)NCc2ccccc2CN2CCOCC2)c1            inhibition                 -16.6
6          O=C(Cc1ccccc1)Nc1c(Cl)ccc2nsnc12            inhibition                 -21.2
